Target: UniProt:P23945
Sequence (P23945 18-695): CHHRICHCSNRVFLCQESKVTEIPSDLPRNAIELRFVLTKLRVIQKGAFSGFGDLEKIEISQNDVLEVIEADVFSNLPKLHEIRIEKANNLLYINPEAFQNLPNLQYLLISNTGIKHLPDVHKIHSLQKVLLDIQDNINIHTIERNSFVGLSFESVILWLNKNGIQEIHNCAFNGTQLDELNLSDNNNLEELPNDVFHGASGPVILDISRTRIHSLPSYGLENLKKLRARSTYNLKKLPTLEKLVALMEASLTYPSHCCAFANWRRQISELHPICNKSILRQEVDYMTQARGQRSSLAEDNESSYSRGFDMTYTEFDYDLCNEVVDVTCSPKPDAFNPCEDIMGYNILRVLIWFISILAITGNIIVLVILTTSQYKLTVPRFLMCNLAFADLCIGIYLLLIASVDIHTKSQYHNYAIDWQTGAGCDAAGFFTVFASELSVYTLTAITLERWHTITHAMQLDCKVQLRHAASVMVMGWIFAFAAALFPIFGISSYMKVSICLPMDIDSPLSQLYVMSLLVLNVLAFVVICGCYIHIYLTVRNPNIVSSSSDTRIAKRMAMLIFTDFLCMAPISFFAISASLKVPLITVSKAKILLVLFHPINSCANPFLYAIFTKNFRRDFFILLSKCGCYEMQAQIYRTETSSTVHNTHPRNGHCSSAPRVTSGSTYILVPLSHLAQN
Assay: FSH Receptor Radioligand Membrane Binding Standard Pharmacological Test Procedure
Set-up: expressed in transfected cells
Conditions: [125I]FSH binding to membranes of CHO cells stably transfected with the human FSH receptor
pIC50: −log10 of the molar value.
This section presents compounds with their documented pIC50 values.

compound	pIC50
COc1ccc(C(=O)Nc2ccc(/C=C/c3ccc(NC(=O)c4ccc(OC)c(S(=O)(=O)N5CCN(C(C)=O)CC5)c4)cc3S(=O)(=O)O)c(S(=O)(=O)O)c2)cc1S(=O)(=O)N1CCN(C(C)=O)CC1 [Example 34a]	5.42
O=C(CS(=O)(=O)c1cccc(C(=O)Nc2ccc(/C=C/c3ccc(NC(=O)c4cccc(S(=O)(=O)CC(=O)NCCO)c4)cc3S(=O)(=O)O)c(S(=O)(=O)O)c2)c1)NCCO [Example 37c]	5.17
COCCNS(=O)(=O)c1cc(C(=O)Nc2ccc(/C=C/c3ccc(NC(=O)c4ccc(S(C)(=O)=O)c([N+](=O)[O-])c4)cc3S(=O)(=O)O)c(S(=O)(=O)O)c2)ccc1OC [Example 30f]	5.72
COCCOc1ccc(C(=O)Nc2ccc(/C=C/c3ccc(NC(=O)c4ccc(OC)c(S(=O)(=O)N5CCOCC5)c4)cc3S(=O)(=O)O)c(S(=O)(=O)O)c2)cc1	5.16
CS(=O)(=O)Cc1ccc(C(=O)Nc2ccc(/C=C/c3ccc(NC(=O)c4ccc(CS(C)(=O)=O)cc4)cc3S(=O)(=O)O)c(S(=O)(=O)O)c2)cc1 [Example 32g]	5.28
O=C(O)CS(=O)(=O)c1cccc(C(=O)Nc2ccc(C=Cc3ccc(NC(=O)c4cccc(S(=O)(=O)CC(=O)O)c4)cc3S(=O)(=O)O)c(S(=O)(=O)O)c2)c1 [Example 36b]	4.68
COc1ccc(C(=O)Nc2ccc(/C=C/c3ccc(NC(=O)c4ccc(OC)c(S(=O)(=O)N5CCCC5)c4)cc3S(=O)(=O)O)c(S(=O)(=O)O)c2)cc1S(=O)(=O)N1CCCC1 [Example 33e]	5.37
COCCOc1ccc(C(=O)Nc2ccc(CCc3ccc(NC(=O)c4ccc(OC)c(S(=O)(=O)N5CCOCC5)c4)cc3S(=O)(=O)O)c(S(=O)(=O)O)c2)cc1 [Example 43h]	4.92
NC(=O)CS(=O)(=O)c1ccc(C(=O)Nc2ccc(/C=C/c3ccc(NC(=O)c4ccc(S(=O)(=O)CC(N)=O)cc4)cc3S(=O)(=O)O)c(S(=O)(=O)O)c2)cc1 [Example 37b]	5.54
COc1ccc(C(=O)Nc2ccc(/C=C/c3ccc(NC(=O)c4ccc(OC)c(S(=O)(=O)N5CCSCC5)c4)cc3S(=O)(=O)O)c(S(=O)(=O)O)c2)cc1S(=O)(=O)N1CCSCC1 [Example 33d]	5.28
COc1ccc(C(=O)Nc2ccc(/C=C/c3ccc(NC(=O)c4ccc(OC)c(S(=O)(=O)N5CCCCCC5)c4)cc3S(=O)(=O)O)c(S(=O)(=O)O)c2)cc1S(=O)(=O)N1CCCCCC1 [Example 33f]	4.80
NC(=O)CS(=O)(=O)c1cccc(C(=O)Nc2ccc(/C=C/c3ccc(NC(=O)c4cccc(S(=O)(=O)CC(N)=O)c4)cc3S(=O)(=O)O)c(S(=O)(=O)O)c2)c1 [Example 37d]	5.37
COc1ccc(C(=O)Nc2ccc(Sc3ccc(NC(=O)c4ccc(OC)c(S(=O)(=O)N5CCOCC5)c4)cc3S(=O)(=O)O)c(S(=O)(=O)O)c2)cc1S(=O)(=O)N1CCOCC1 [Example 33h]	4.64
CS(=O)(=O)c1ccc(C(=O)Nc2ccc(/C=C/c3ccc(NC(=O)c4ccc(S(C)(=O)=O)c(S(=O)(=O)N5CCOCC5)c4)cc3S(=O)(=O)O)c(S(=O)(=O)O)c2)cc1S(=O)(=O)N1CCOCC1 [Example 30d]	5.82
O=C(Nc1ccc(/C=C/c2ccc(NC(=O)c3ccc(N4CCOCC4)c(S(=O)(=O)N4CCOCC4)c3)cc2S(=O)(=O)O)c(S(=O)(=O)O)c1)c1ccc(N2CCOCC2)c(S(=O)(=O)N2CCOCC2)c1 [Example 32k]	5.15
O=C(Nc1ccc(/C=C/c2ccc(NC(=O)c3cccc(CN4CCOCC4)c3)cc2S(=O)(=O)O)c(S(=O)(=O)O)c1)c1cccc(CN2CCOCC2)c1 [Example 33b]	5.35
COC(=O)C=CCS(=O)(=O)c1cccc(C(=O)Nc2ccc(C=Cc3ccc(NC(=O)c4cccc(S(=O)(=O)CC=CC(=O)OC)c4)cc3S(=O)(=O)O)c(S(=O)(=O)O)c2)c1 [Example 32e]	5.31
COc1ccc(C(=O)Nc2ccc(/C=C/c3ccc(NC(=O)c4ccc(OC)c(S(=O)(=O)N5CCS(=O)(=O)CC5)c4)cc3S(=O)(=O)O)c(S(=O)(=O)O)c2)cc1S(=O)(=O)N1CCS(=O)(=O)CC1 [Example 30k]	5.70
COc1ccc(C(=O)Nc2ccc(CCc3ccc(NC(=O)c4ccc(OC)c(S(=O)(=O)N5CCS(=O)(=O)CC5)c4)cc3S(=O)(=O)O)c(S(=O)(=O)O)c2)cc1S(=O)(=O)N1CCS(=O)(=O)CC1 [Example 43c]	5.35
COc1ccc(C(=O)Nc2ccc(-c3ccc(NC(=O)c4ccc(OC)c(S(=O)(=O)N5CCOCC5)c4)cc3S(=O)(=O)O)c(S(=O)(=O)O)c2)cc1S(=O)(=O)N1CCOCC1 [Example 33g]	4.70
